molecular target: T1, rat NK1 receptor (rat, UniProt P14600 1-407); test: radioligand competition vs [3H]substance P, membranes of rNK1 CHO cells
T1 construct: whole, on cells; Used as membrane preparations of transfected CHO cells; also called rNK1; rat neurokinin-1 receptor
T1 sequence (P14600 whole entry): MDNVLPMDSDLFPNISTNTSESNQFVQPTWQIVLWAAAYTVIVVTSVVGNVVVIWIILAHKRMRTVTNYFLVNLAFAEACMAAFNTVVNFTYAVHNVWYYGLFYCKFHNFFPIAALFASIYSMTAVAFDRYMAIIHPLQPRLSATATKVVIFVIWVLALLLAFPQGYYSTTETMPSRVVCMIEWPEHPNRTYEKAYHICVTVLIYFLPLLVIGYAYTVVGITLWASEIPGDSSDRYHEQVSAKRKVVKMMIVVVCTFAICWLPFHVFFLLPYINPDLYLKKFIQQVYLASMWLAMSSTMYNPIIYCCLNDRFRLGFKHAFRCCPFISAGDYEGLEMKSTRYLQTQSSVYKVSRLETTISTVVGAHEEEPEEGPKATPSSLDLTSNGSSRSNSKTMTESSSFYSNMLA
Square brackets hold non-standard residues; d marks the D form. Ends that are not written are not given here. * marks the point of attachment. NH(3,5-(CF3)2-benzyl) = FC(F)(F)c1cc(CN*)cc(C(F)(F)F)c1; OBzl(3,5-(CF3)2) = FC(F)(F)c1cc(CO*)cc(C(F)(F)F)c1; Dmt = Cc1cc(O)cc(C)c1C[C@H](N)C(=O)O; NHBn = c1ccc(CN*)cc1
OBSERVABLE: Ki (nM)
The answer is to be given in nM; state only the numeric part.

[Dmt][dA]GFMPLW-NHBn [DmtDAlaGlyPheMetProLeuTrpNHBn (TY034)] :: 317
Y[dA]GFPLW-{NH(3,5-(CF3)2-benzyl)} [TyrDAlaGlyPheProLeuTrpNHBn(CF3)2 (TY012)] :: 32.6
[Dmt][dA]GFMPLW-{NH(3,5-(CF3)2-benzyl)} [DmtDAlaGlyPheMetProLeuTrpNHBn(CF3)2 (TY032)] :: 2.3
Y[dA]GFSPLW-{NH(3,5-(CF3)2-benzyl)} (not fully specified (residue 5); printed as TyrDAlaGlyPheSer(OGlu)ProLeuTrpNHBn(CF3)2) [TyrDAlaGlyPheSer(OGlu)ProLeuTrpNHBn(CF3)2 (TY042)] :: 1.45

Now take the following binder into account.
For record MPLW-{OBzl(3,5-(CF3)2)} [MetProLeuTrpOBn(CF3)2 (TY036)] the listed Ki is 0.99
